- Target Entity: Bifunctional dihydrofolate reductase-thymidylate synthase (Toxoplasma gondii, UniProt Q07422)
- Sequence (Q07422 whole entry): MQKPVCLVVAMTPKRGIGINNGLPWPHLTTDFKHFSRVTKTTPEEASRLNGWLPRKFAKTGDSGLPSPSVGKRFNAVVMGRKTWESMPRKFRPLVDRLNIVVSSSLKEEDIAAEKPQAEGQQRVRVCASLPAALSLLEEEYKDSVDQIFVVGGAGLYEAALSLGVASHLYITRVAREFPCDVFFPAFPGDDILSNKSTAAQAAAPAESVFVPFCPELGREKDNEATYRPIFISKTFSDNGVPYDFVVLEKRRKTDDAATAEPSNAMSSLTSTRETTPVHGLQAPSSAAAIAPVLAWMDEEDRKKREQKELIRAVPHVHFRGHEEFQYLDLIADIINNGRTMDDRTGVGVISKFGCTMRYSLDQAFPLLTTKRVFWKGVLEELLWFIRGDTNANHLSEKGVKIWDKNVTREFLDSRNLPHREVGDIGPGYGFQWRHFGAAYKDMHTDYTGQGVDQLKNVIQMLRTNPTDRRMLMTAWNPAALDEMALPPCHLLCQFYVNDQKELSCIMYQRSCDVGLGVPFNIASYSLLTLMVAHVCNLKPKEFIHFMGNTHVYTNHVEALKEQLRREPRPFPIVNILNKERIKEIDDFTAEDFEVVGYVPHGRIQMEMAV
- Assay Text: Tested for inhibitory activity against dihydrofolate reductase in Toxoplasma gondii
Readout: IC50 (nM)
Response body: numeric value in nM, unit text excluded.

Input `Nc1nc(N)c2c3c(sc2n1)CN(Cc1ccccc1)CC3` . Output IC50: 850

###

- Target Entity: Dihydrofolate reductase (Rattus norvegicus)
- Sequence (Q920D2 whole entry): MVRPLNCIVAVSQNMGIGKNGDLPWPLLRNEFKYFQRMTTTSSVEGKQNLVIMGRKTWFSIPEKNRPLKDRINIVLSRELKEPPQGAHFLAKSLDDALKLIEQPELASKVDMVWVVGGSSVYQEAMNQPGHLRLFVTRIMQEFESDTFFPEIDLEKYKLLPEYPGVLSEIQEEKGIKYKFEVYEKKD
pIC50: −log10 of the molar value.
Classes are defined on pIC50 with ranges I (below 5), II (5 to below 6), III (6 or more)

Worked set:
# Chemical Structure, Discrete Label
measured = [
    ("Nc1nc(N)c2c3c(sc2n1)CN(Cc1ccccc1)CC3", "III"),
    ("COc1cc(Cc2sc3nc(N)nc(N)c3c2C)cc(OC)c1OC", "I"),
    ("COc1ccc(OC)c(CCc2sc3nc(N)nc(N)c3c2C)c1", "II"),
    ("Cc1sc2nc(N)nc(N)c2c1-c1ccc(Cl)cc1", "I"),
]

In plain terms, what class is `Cc1c(-c2ccc(Cl)c(Cl)c2)sc2nc(N)nc(N)c12` ?
II

Dear colleague, I would appreciate it if you could identify the bin for `Nc1nc(N)c2c3c(sc2n1)CCCC3` and reply at your convenience.
II

Which class holds `Cc1c(Cc2ccccc2)sc2nc(N)nc(N)c12` ?
I
